Source of measurements: patent US20260125382A1

- study system: CDK2 (Homo sapiens, UniProt P24941)
- Construct: endogenous in cells; host or cells: MDA-MB-231
- measurement protocol: CDK protein degradation activity (Western blotting), CDK2
- Type: cell-based
- test context: MDA-MB-231 cells, 1 μM, 16 hours, Western blot
List of Enzyme degradation CDK2 (% remaining) @ 1 μM values.
Just the number in %, nothing appended.

Some entries whose results are on file:
>>> numeric_readout("O=C(COc1cccc2c1C(=O)N(C1CCC(=O)NC1=O)C2=O)NCC1CCC(CN2CCN(c3ccc(Nc4ncnc5c4ncn5C4CC(NC(=O)Cc5ccccc5)C4)cc3)CC2)CC1 (stereo not shown)")
50
>>> numeric_readout("Cc1cccc(C(=O)NC2CC(n3cnc4c(NC5CCN(CCC6CCN(C(=O)COc7cccc8c7C(=O)N([C@H]7CCC(=O)NC7=O)C8=O)CC6)CC5)ncnc43)C2)n1 (stereo partly shown)")
20
>>> numeric_readout("Cc1cccc(C(=O)NC2CC(n3cnc4c(Nc5ccc(N6CCN(C(=O)COc7ccc8c(c7)C(=O)N([C@H]7CCC(=O)NC7=O)C8=O)CC6)cc5)ncnc43)C2)n1 (stereo partly shown)")
30
>>> numeric_readout("Cc1cccc(C(=O)NC2CC(n3cnc4c(NCc5ccc(OCCCN6CCN(C(=O)CNc7ccc8c(c7)C(=O)N([C@H]7CCC(=O)NC7=O)C8=O)CC6)cc5)ncnc43)C2)n1 (stereo partly shown)")
40

# molecule O=C1CC[C@H](N2C(=O)c3ccc(N4CCC(CN5CCC(CCNc6ncnc7c6ncn7C6CC(NC(=O)Cc7ccccc7)C6)CC5)CC4)cc3C2=O)C(=O)N1 (stereo partly shown) ; its Enzyme degradation CDK2 (% remaining) @ 1 μM = 20

# molecule O=C1CC[C@H](N2C(=O)c3ccc(CCCCN4CCC(N5CCN(c6ccc(Nc7ncnc8c7ncn8C7CC(NC(=O)Cc8ccccc8)C7)cc6)CC5)CC4)cc3C2=O)C(=O)N1 (stereo partly shown) ; its Enzyme degradation CDK2 (% remaining) @ 1 μM = 30

# molecule Cc1cccc(C(=O)N[C@H]2C[C@@H](n3cnc4c(NCc5cccc(N6CCN(CC7CCN(c8ccc9c(c8)C(=O)N([C@H]8CCC(=O)NC8=O)C9=O)CC7)CC6)c5)ncnc43)C2)n1 ; its Enzyme degradation CDK2 (% remaining) @ 1 μM = 40

# molecule O=C1CC[C@H](N2C(=O)c3ccc(N4CC(C(=O)N5CCC(CN6CCN(c7ccc(Nc8ncnc9c8ncn9C8CC(NC(=O)c9cccc(Cl)n9)C8)cc7)CC6)CC5)C4)cc3C2=O)C(=O)N1 (stereo partly shown) ; its Enzyme degradation CDK2 (% remaining) @ 1 μM = 30

====

- study system: CDK9 (Homo sapiens, UniProt P50750)
- Construct: endogenous in cells; host or cells: MDA-MB-231
- Sequence (P50750 whole entry): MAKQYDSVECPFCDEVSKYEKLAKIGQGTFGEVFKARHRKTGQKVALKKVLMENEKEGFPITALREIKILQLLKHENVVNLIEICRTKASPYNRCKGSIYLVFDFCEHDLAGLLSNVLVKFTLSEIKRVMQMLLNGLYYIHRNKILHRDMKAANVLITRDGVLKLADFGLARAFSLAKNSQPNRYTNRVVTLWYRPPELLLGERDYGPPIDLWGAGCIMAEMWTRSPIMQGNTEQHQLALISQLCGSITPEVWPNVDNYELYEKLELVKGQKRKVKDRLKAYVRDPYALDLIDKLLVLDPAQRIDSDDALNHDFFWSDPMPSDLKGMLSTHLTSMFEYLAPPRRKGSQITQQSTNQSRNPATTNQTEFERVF
- measurement protocol: CDK protein degradation activity (Western blotting), CDK9
- Assay type: cell-based
- test context: MDA-MB-231 cells, 1 μM, 16 hours, Western blot
List of Enzyme degradation CDK9 (% remaining) @ 1 μM values.
Just the number in %, nothing appended.

Some entries whose results are on file:
>>> numeric_readout("O=C1CC[C@H](N2C(=O)c3ccc(OCC(=O)N4CCC(CCCN5CCN(c6ccc(Nc7ncnc8c7ncn8[C@H]7C[C@@H](NC(=O)Cc8ccccc8)C7)cc6)CC5)CC4)cc3C2=O)C(=O)N1")
10
>>> numeric_readout("O=C1CC[C@H](N2C(=O)c3ccc(OCC(=O)N4CCC(CN5CCC(CNc6ncnc7c6ncn7C6CC(NC(=O)c7c(Cl)cccc7Cl)C6)CC5)CC4)cc3C2=O)C(=O)N1 (stereo partly shown)")
0
>>> numeric_readout("O=C1CCC(N2C(=O)c3cc(F)c(N4CCC(C(=O)N5CCC(CN6CCC(CCNc7ncnc8c7ncn8[C@H]7C[C@@H](NC(=O)Cc8ccccc8)C7)CC6)CC5)CC4)cc3C2=O)C(=O)N1 (stereo partly shown)")
0
>>> numeric_readout("O=C1CC[C@H](N2C(=O)c3ccc(OCC(=O)N4CCC5(CC4)CC(N4CCN(c6ccc(Nc7ncnc8c7ncn8[C@H]7C[C@@H](NC(=O)Cc8ccccc8)C7)cc6)CC4)C5)cc3C2=O)C(=O)N1")
0
>>> numeric_readout("Cc1cccc(C(=O)N[C@H]2C[C@@H](n3cnc4c(NC5CCN(CCC6CCN(c7ccc8c(c7)C(=O)N([C@H]7CCC(=O)NC7=O)C8=O)CC6)CC5)ncnc43)C2)n1")
10

# compound O=C1CC[C@H](N2C(=O)c3cccc(NCC(=O)N4CCN(CC5CCN(c6ccc(Nc7ncnc8c7ncn8[C@H]7C[C@@H](NC(=O)Cc8ccccc8)C7)cc6)CC5)CC4)c3C2=O)C(=O)N1 ; its Enzyme degradation CDK9 (% remaining) @ 1 μM = 10

# compound Cc1cccc(C(=O)NC2CC(n3cnc4c(NCc5ccc(N6CCN(C(=O)CNc7cccc8c7C(=O)N([C@H]7CCC(=O)NC7=O)C8=O)CC6)cc5)ncnc43)C2)n1 (stereo partly shown) ; its Enzyme degradation CDK9 (% remaining) @ 1 μM = 0

====

- study system: CDK9 (Homo sapiens, UniProt P50750)
- Construct: endogenous in cells; host or cells: MDA-MB-231
- measurement protocol: CDK protein degradation activity (Western blotting), CDK9
- Type: cell-based
- test context: MDA-MB-231 cells, 1 μM, 16 hours, Western blot
result type: Enzyme degradation CDK9 (% remaining) @ 1 μM (%)
Just the number in %, nothing appended.

>>> numeric_readout("O=C1CCC(N2C(=O)c3cc(F)c(N4CCC(CN5CCC(CCNc6ncnc7c6ncn7[C@H]6C[C@@H](NC(=O)Cc7ccccc7)C6)CC5)CC4)cc3C2=O)C(=O)N1 (stereo partly shown) [Compound 409]")
50

# molecule Cc1cccc(C(=O)NC2CC(n3cnc4c(Nc5ccc(N6CCN(CC7CCN(C(=O)CNc8ccc9c(c8)C(=O)N([C@H]8CCC(=O)NC8=O)C9=O)CC7)CC6)cc5)ncnc43)C2)n1 (stereo partly shown) [Compound 92] ; its Enzyme degradation CDK9 (% remaining) @ 1 μM = 0

# molecule CC(=O)N[C@H]1C[C@@H](n2cnc3c(NCC4CCN(CC5CCN(C(=O)CNc6ccc7c(c6)C(=O)N([C@H]6CCC(=O)NC6=O)C7=O)CC5)CC4)ncnc32)C1 [Compound 156] ; its Enzyme degradation CDK9 (% remaining) @ 1 μM = 50

# molecule Cc1cccc(C(=O)N[C@H]2C[C@@H](n3cnc4c(NCc5cccc(N6CCN(C(=O)CNc7cccc8c7C(=O)N(C7CCC(=O)NC7=O)C8=O)CC6)c5)ncnc43)C2)n1 (stereo partly shown) [Compound 130] ; its Enzyme degradation CDK9 (% remaining) @ 1 μM = 40

# molecule O=C1CCC(N2C(=O)c3cc(F)c(N4CCC(N5CCN(c6ccc(Nc7ncnc8c7ncn8[C@H]7C[C@@H](NC(=O)Cc8ccccc8)C7)cc6)CC5)CC4)cc3C2=O)C(=O)N1 (stereo partly shown) [Compound 333] ; its Enzyme degradation CDK9 (% remaining) @ 1 μM = 0

====

- study system: CDK2 (Homo sapiens)
- Construct: endogenous in cells; host or cells: MDA-MB-231
- measurement protocol: CDK protein degradation activity (Western blotting), CDK2
- Type: cell-based
- test context: MDA-MB-231 cells, 10 μM, 16 hours, Western blot
- Method: In order to evaluate the CDK protein degradation activity of the compounds according to the present invention, the following experiment was conducted. MDA-MB-231 cells were seeded at 5×10^5 cells per well in a 6-well plate. The next day, the compounds were treated in each well to achieve final concentrations of 100 nM, 1 μM, and 10 μM. […] Cell lysates were quantified and separated by size using sodium dodecyl sulfate-polyacrylamide gel electrophoresis (SDS-PAGE). […]
result type: Enzyme degradation CDK2 (% remaining) @ 10 μM (%)
Just the number in %, nothing appended.

>>> numeric_readout("O=C1CC[C@H](N2C(=O)c3ccc(OCC(=O)N4CCN(CC5CCN(c6ccc(Nc7ncnc8c7ncn8C7CC(NC(=O)c8c(Cl)cccc8Cl)C7)cc6)CC5)CC4)cc3C2=O)C(=O)N1 (stereo partly shown)")
60
>>> numeric_readout("O=C1CC[C@H](N2C(=O)c3ccc(N4CC(CN5CCC(CCN6CCN(c7ccc(Nc8ncnc9c8ncn9[C@H]8C[C@@H](NC(=O)Cc9ccccc9)C8)cc7)CC6)CC5)C4)cc3C2=O)C(=O)N1")
10
>>> numeric_readout("O=C1CC[C@H](N2C(=O)c3ccc(N4CCN(CCC5CCN(c6ccc(Nc7ncnc8c7ncn8[C@H]7C[C@@H](NC(=O)Cc8ccccc8)C7)cc6)CC5)CC4)cc3C2=O)C(=O)N1")
0
>>> numeric_readout("O=C1CC[C@@H](c2ccc(OCC(=O)N3CCC(CCN4CCN(c5ccc(Nc6ncnc7c6ncn7[C@H]6C[C@@H](NC(=O)c7cccc(C(F)(F)F)n7)C6)cc5)CC4)CC3)cc2)C(=O)N1")
50

Next molecule, Enzyme degradation CDK2 (% remaining) @ 10 μM to be filled in.
# molecule Cc1cccc(C(=O)NC2CC(n3cnc4c(NCc5ccc(OCCCN6CCN(C(=O)CNc7ccc8c(c7)C(=O)N([C@H]7CCC(=O)NC7=O)C8=O)CC6)cc5)ncnc43)C2)n1 (stereo partly shown) ; its Enzyme degradation CDK2 (% remaining) @ 10 μM = 50
